Value source: ChEMBL document CHEMBL4513216

# System: Plasmodium berghei
# assay.summary: Screen against P. berghei liver stage (PbLuc), transformed with Luciferase, at 10uM
# Format: functional, HepG2
# recorded.conditions: tested at 10 uM
Hit rate of the full screen: of about 69,000 compounds, about 8,600 (12%) showed an effect of 50% or more. What follows is part of a selection rich in strong results, with near analogues and random picks from the rest.
Mark condition not met for INHIBITION values under 40%, and condition met for everything at or above.

- C1CCC(CNC2CCSCC2)(N2CCOCC2)CC1: condition met
- Cn1cc(CN2CC[C@@H]3[C@@H](CO[C@H]3CNC(=O)c3ccco3)C2)cn1: condition not met
- O=C(NCCN1CCOCC1)c1ccc(-c2ccccc2)[nH]c1=O: condition not met
- CN(CCc1ccccn1)C(=O)c1cccs1: condition met
- CC(=O)Nc1ccc(CNC(=O)CNCc2sc(C)nc2C)cc1: condition met
- CC(=O)Nc1ccc(CNC(=O)CNCc2snnc2C)cc1: condition met
- O=C(c1ccnc(N2CCOC(c3ccc(Cl)cc3)C2)c1)N1CCCC1 (configuration not stated): condition met
- Cc1ccc(C(=O)NCCN2CCOCC2)c(=O)[nH]1: condition not met
- CN(CC(=O)NCCc1ccccn1)C(=O)c1cccs1: condition not met
- Cc1nc(CNC(=O)c2cc(COc3ccccc3)[nH]n2)n[nH]1: condition not met
- O=S(=O)(N1CCOCC1)N1CCCC1Cn1cccn1 (configuration not stated): condition not met
- CN1CCN(C(=O)c2ccnc(N3CCOC(C(F)(F)F)C3)c2)CC1 (configuration not stated): condition not met
- CO[C@@H]1CO[C@@]2(CCN(C(=O)COc3ccccc3C)C2)C1: condition met
- CN(CCc1ccccn1)C(=O)c1cn2c(n1)CNCC2: condition met
- C1CCC(NCC2(N3CCOCC3)CCSC2)C1 (configuration not stated): condition not met
- Cc1ccccc1OCC(=O)N1CC[C@]2(C[C@@H](OCC3CC3)CO2)C1: condition not met
- O=C(CCN1C(=O)CCC1=O)Nc1ccc(Oc2ccc(Cl)cc2)nc1: condition met
- CC(C)OCC(=O)Nc1ccc(Oc2ccc3c(c2)OCO3)nc1: condition not met
- CS(=O)(=O)N1CCC(NCC2(N3CCOCC3)CCCCC2)CC1: condition met
- COc1cccc(C(=O)N2CCOCC2CN(C)C)c1OC (configuration not stated): condition not met
- CC(O)CN1CCN(Cc2cccc(C(=O)N3CCCCC3)c2)CC1 (configuration not stated): condition not met
- CCn1ncc2c1C(COCC1CC1)N(Cc1c(C)noc1C)CC2 (configuration not stated): condition met
- CC(=O)Nc1ccc(CN(C)Cc2snnc2C)cc1: condition not met
- Cc1nc(CN2CCCC(C)(CO)C2)no1 (configuration not stated): condition met
- O=C(c1ccnc(N2CCOC(C(F)(F)F)C2)c1)N1CCOCC1 (configuration not stated): condition not met
- Cc1nc(CN2CCCN(CCCc3ccccc3)CC2)no1: condition not met
- O=C(c1ccnc(N2CCOC(C(F)(F)F)C2)c1)N1CCCC1 (configuration not stated): condition not met
- O=C(CCN1C(=O)CCC1=O)Nc1cnn(-c2ccccc2Cl)c1: condition not met
- O=C(CN1C(=O)CCNC1=O)N1CCOC(c2ccc(Cl)c(Cl)c2)C1 (configuration not stated): condition not met
- c1cnn(CCCO[C@@H]2CN(C3CCOCC3)[C@@H]3CCCO[C@@H]32)c1: condition not met
- CCO[C@@H]1CO[C@@]2(CCCN(C(=O)COc3ccccc3OC)C2)C1: condition not met
- Cc1[nH]ncc1CCCNC(=O)N1CCCC(c2nncn2C)C1 (configuration not stated): condition not met
- O=C(NCCN1CCOCC1)c1cnc(Cc2ccc(F)cc2)s1: condition met
- Cc1nc(CN2CCOC3(CCCC3)C2)no1: condition met
- CC(=O)NCC(=O)N1CCC(c2cncc(Oc3cccnc3)n2)CC1: condition not met
- Cc1cccc(-c2ccc(C(=O)NCCN3CCOCC3)c(=O)[nH]2)c1: condition met
- CN1CCO[C@@H]2CN(C(=O)COc3cccc(Cl)c3)C[C@@H]2C1: condition not met
- Cc1nc(C)c(CC(=O)NCc2ccccc2F)s1: condition not met
- CNC(=O)c1ccc(C2CN(c3cc(C)nc(N)n3)CCO2)nc1 (configuration not stated): condition not met
- O=C(CCN1C(=O)CCC1=O)Nc1ccc(Cl)cc1: condition met
- O=c1occ(CN2CCCCCC2)c(O)c1CN1CCCCCC1: condition not met
- O=C(NC1CC1)c1ccnc(N2CCOC(c3ccc(Cl)c(Cl)c3)C2)c1 (configuration not stated): condition met
- CC(=O)Nc1ccc(CNC(=O)CNCc2nnc(C)o2)cc1: condition met
- COc1ccccc1OCC(=O)N1CCC[C@]2(C[C@@H](OC)CO2)C1: condition met

###

# System: Plasmodium berghei
# assay.summary: Screen against P. berghei liver stage (PbLuc), transformed with Luciferase, at 10uM
# Assay type: functional, HepG2
# recorded.conditions: tested at 10 uM
The campaign covered roughly 69,000 compounds. About 8,600 (12%) showed an effect of 50% or more. Shown is part of a subset that was picked to be rich in strong results.
Binarize INHIBITION at 60%; below is Y, at or above is N.

- O=C(N1CCCC1)N1C[C@H]2CCC[C@@]2(COCc2ccccn2)C1: N
- O=C(c1ccc(F)cc1)N1C[C@H]2CCC[C@@]2(COCc2ccccn2)C1: Y
- COc1ccc(C)cc1C(C)NC(=O)Cn1ccc(=O)n(C)c1=O (stereo not given): Y
- O=C(c1cscn1)N1C[C@H]2CCC[C@@]2(COCc2ccccn2)C1: N

###

Catalogue of compounds with associated INHIBITION
# Test system: Plasmodium berghei
# assay.summary: Screen against P. berghei liver stage (PbLuc), transformed with Luciferase, at 10uM
# Assay type: functional, HepG2
# recorded.conditions: tested at 10 uM
Out of some 69,000 compounds screened, about 8,600 (12%) showed an effect of 50% or more. The sample as a whole holds a higher share of strong results than the screen did.
endpoint: INHIBITION (%)

* c1cnn(CCNCc2cnc(N3CCCC3)nc2)c1 | -1.04
* Cc1cnn(CCNCc2ccc(S(C)(=O)=O)cc2)c1 | -13.1
* Cn1nc(C(=O)N2CC(Oc3nc4c(Cl)cccc4s3)C2)ccc1=O | 29.6
* c1ccc(Cn2cccn2)c(CNCc2cnc(N3CCCC3)nc2)c1 | 22.6
* O=C(C1=COCCO1)N1CC(Oc2nc3c(C(F)(F)F)cccc3s2)C1 | 81.1
* Brc1ccccc1-c1nnc(CNCCn2cccn2)o1 | 29.7
* Cc1cnn(CC(C)NCc2ccc(C#N)cc2)c1 (configuration not stated) | 32.8
* O=C(Cc1ccccc1)NCc1ncc(-c2ccccc2C(=O)O)cn1 | 1.65
* OC1CN(c2nc3c(C(F)(F)F)cccc3s2)C1 | -40
* COc1cc(CNC(C)Cn2cccn2)cc(OC)c1 (configuration not stated) | 25.1
* NCC1CN(c2nc(-c3cccnc3)nc3c2CCNCC3)CCO1 (configuration not stated) | 7.43
* CO[C@H]1CNC[C@@H]1NC(=O)CCc1nc(-c2ccccc2)no1 | 0.426

###

# Tested on: Plasmodium berghei
# assay.summary: Screen against P. berghei liver stage (PbLuc), transformed with Luciferase, at 10uM
# Format: functional, HepG2
# recorded.conditions: tested at 10 uM
In all, about 69,000 compounds went through this assay and about 8,600 (12%) showed an effect of 50% or more. The full list was thinned out, with strong results kept by preference.
Binarize INHIBITION at -30%; below is MET, at or above is NOT MET.

• Cc1nc(CCNC(=O)C2CCN(C(C)C)CC2)sc1Cl = NOT MET
• CCCN1CCC(CC(=O)NCCc2nc(C)cc(C)n2)CC1 = MET
• CCN1CCC(CC(=O)NCCc2nc(C)cc(C)n2)CC1 = NOT MET
• O=C(NCCn1ccc(-c2ccccn2)n1)C1CCC1 = NOT MET
• Cc1nc(CCNC(=O)CC2CCN(C(C)C)CC2)sc1Cl = NOT MET
• CC(C)Nc1ncnc2c1CCN(Cc1nccn1C)CC2 = NOT MET

###

# Test system: Plasmodium berghei
# assay.summary: Screen against P. berghei liver stage (PbLuc), transformed with Luciferase, at 10uM
# Type: functional, HepG2
# recorded.conditions: tested at 10 uM
About 8,600 (12%) of roughly 69,000 compounds showed an effect of 50% or more. This is one part of a sample in which strong results are shown more often than they occur.
Catalogue of molecules with associated INHIBITION
endpoint: INHIBITION (%)

- Cc1cccc(OCC(O)CNCc2c(C)nn(C)c2N(C)C)c1 (configuration not stated): -45.2
- Cc1cnn(CCC(=O)N2CCN(c3nccs3)CC2)c1: 23.5
- Cc1nn(C)c(N(C)C)c1CNCC(O)COc1cccc(F)c1 (configuration not stated): 83.2
- COc1cccc(CNCc2c(C(C)C)nn(C)c2N(C)C)c1: 12.22
- Cc1cc(C(=O)NCc2cccnc2N2CCCC(O)C2)[nH]n1 (configuration not stated): 34.5
- Cc1nn(C)c(N(C)C)c1CNCc1cccc(Br)c1: -22.1
- COCc1cccc(CNCc2c(C(C)C)nn(C)c2N(C)C)c1: 50.8
- CCN(CC1CCCO1)C(=O)Nc1cccc(Cl)c1OC (configuration not stated): 26.4
- Cc1nn(C)c(N(C)C)c1CNCc1cccc(Cl)c1: 68.1
- Cc1nn(C)c(N(C)C)c1CNCc1cccc(CN(C)C)c1: -72.2
- COc1cc(CNCc2c(C)nn(C)c2N(C)C)ccc1C: 30.8
- COCc1cccc(CNCc2c(C)nn(C)c2N(C)C)c1: 44.3
